experiment: Solubility in buffer systems A-G; type: physicochemical; settings: pH 4, aqueous with cosolvent or surfactant or cyclodextrin, thermodynamic from solid, buffer pH 4, containing 20% (w/v) of HPBCD; read-out: Solubility, buffer system D
endpointLabel: solubility (µg/mL)
Answers are plain numbers, in µg/mL.

## Task What value of solubility has been reported for the following compound? CCc1ccc(C2=NCc3ccc(Cl)cc3-n3cccc32)cc1 [drawing 29]
## Result 1490

----------
experiment: in vivo; design: species or system mice; conditions: mouse, po
endpointLabel: bioavailability (%)
One number for each entry, in %.

## Task What value of bioavailability has been reported for the following molecule? CC(F)(F)c1ccc(C2=NCc3c(Cl)cc(Cl)cc3-n3cccc32)cc1
## Result 100

----------
assay: In vivo pharmacokinetic determinations (bioavailability) in guinea pigs; settings: guinea pig, PO 40 mg/kg, IV 2.5 mg/kg, read-out: Bioavailability in guinea pigs
endpointLabel: bioavailability (%)
Numbers only, in %.

## Task What value of bioavailability has been reported for the following compound? CCc1ccc(C2=NCc3ccc(Cl)cc3-n3cccc32)cc1 [Compound 23 of WO02/34752, reference compound]
## Result 7

----------
test system: Scedosporium apiospermum IHEM3817; assay: Antifungal activity in vitro (resazurin susceptibility screen), Inf. H; format: cell-based; details: Scedosporium apiospermum, IHEM3817, Scedosporium apiospermum IHEM3817; 37 °C, 48 hours, resa time 17 hours
Field: IC50. Provide a value for each of the molecules that follow.

Worked examples, 2 molecules total:
mol: CC(F)(F)c1cc(C2=NCc3c(Cl)cc(F)cc3-n3cccc32)ccc1F
valueReported: 0.158 µM

mol: CC(F)(F)c1cc(C2=NCc3c(F)cc(F)cc3-n3cccc32)ccc1F
valueReported: 0.182 µM

## Task What value of IC50 has been reported for the following molecule? CC(F)(F)c1ccc(C2=NCc3c(Cl)cccc3-n3cccc32)cc1
## Result > 64.6 µM

----------
assay: Solubility in buffer systems A-G; type: physicochemical; settings: pH 7.4, aqueous with cosolvent or surfactant or cyclodextrin, thermodynamic from solid, buffer pH 7.4, containing 10% (w/v) of HPBCD; read-out: Solubility, buffer system F
Field: solubility. Provide a value for each of the compounds that follow.
One number for each entry, in µg/mL.

compound: CC(F)(F)c1ccc(C2=NCc3ccc(Cl)cc3-n3cccc32)cc1 [drawing 30]
solubility / µg/mL: 191

Proceed to the following item.
## Task What value of solubility has been reported for the following compound? CCc1ccc(C2=NCc3ccc(Cl)cc3-n3cccc32)cc1 [drawing 29]
## Result 35

----------
tested on: Microsporum canis (strain B68128); assay: Test D.4.1: activity against M. canis in guinea-pigs after oral treatment for 7 consecutive days; type: in vivo; set-up: key: lesion score 0–3.5 by severity and size of lesion; conditions: oral 10 mg/kg once daily for 7 days; 20 DPI
Field: semi-quantitative lesion score (mean). Provide a value for each of the compounds that follow.
Give bare numbers.

Worked examples, 2 compounds total:
compound: CC(F)(F)c1cccc(C2=NCc3c(Cl)cccc3-n3cccc32)c1
semi-quantitative lesion score (mean): 1.17
--
compound: CN(C/C=C/C#CC(C)(C)C)Cc1cccc2ccccc12 [Terbinafine, reference compound]
semi-quantitative lesion score (mean): 0.42

Batch: semi-quantitative lesion score (mean) for all items listed.
1. CC(F)(F)c1ccc(C2=NCc3c(Cl)cccc3-n3cccc32)cc1
2. CCC(C)n1ncn(-c2ccc(N3CCN(c4ccc(OCC5COC(Cn6cncn6)(c6ccc(Cl)cc6Cl)O5)cc4)CC3)cc2)c1=O (stereo not shown) [Itraconazole, reference compound]

## Result
0.33
0

----------
test system: Trichophyton mentagrophytes B70554; assay: Antifungal activity in vitro (resazurin susceptibility screen), Inf. G; assay type: cell-based; settings: Trichophyton mentagrophytes, B70554, Trichophyton mentagrophytes B70554; 27 °C, 7 days, resa time 24 hours
endpointLabel: log10(IC50) (log10 of the value in nM)
Heads up, the numbers here are log10 of IC50 in nM units.

compound: CC(F)(F)c1ccc(C2=NCc3c(F)cc(Cl)cc3-n3cccc32)cc1
log10(IC50): 3.22
--
compound: CC(F)(F)c1ccc(C2=NCc3c(Cl)cccc3-n3cccc32)cc1
log10(IC50): 2.95

Batch: log10(IC50) for all items listed.
1. CC(F)(F)c1ccc(C2=NCc3ccc(Cl)cc3-n3cccc32)cc1
2. Cc1cc(Cl)cc2c1CN=C(c1ccc(C(C)(F)F)cc1)c1cccn1-2
3. CC(F)(F)c1cc(C2=NCc3ccc(Cl)cc3-n3cccc32)ccc1F
4. CC(F)(F)c1ccc(C2=NCc3c(F)cc(F)cc3-n3cccc32)cc1F
5. CC(F)(F)c1cc(C2=NCc3cccc(Cl)c3-n3cccc32)ccc1F
6. CC(F)(F)c1ccc(C2=NCc3c(F)cccc3-n3cccc32)cc1F
7. CC(F)(F)c1ccc(C2=NCc3cc(Cl)cc(Cl)c3-n3cccc32)cc1

## Result
[3.21, 3.22, 3.91, 3.33, 3.20, 2.56, 3.39]

Batch: log10(IC50) for all items listed.
1. CC(F)(F)c1cccc(C2=NCc3c(Cl)cccc3-n3cccc32)c1
2. CC(F)(F)c1cc(C2=NCc3c(Cl)cc(F)cc3-n3cccc32)ccc1F
3. CC(F)(F)c1ccc(C2=NCc3c(Cl)cc(F)cc3-n3cccc32)cc1
4. CC(F)(F)c1ccc(C2=NCc3c(F)cccc3-n3cccc32)cc1
5. Cc1ccc(Cl)c2c1CN=C(c1ccc(C(C)(F)F)cc1)c1cccn1-2

## Result
[2.78, 3.08, 3.18, 2.40, 4.43]

## Task What value of log10(IC50) has been reported for the following compound? CC(F)(F)c1ccc(C2NCc3c(Cl)cc(F)cc3-n3cccc32)cc1.Cl (centres unmarked)
## Result 3.23
